Measured values drawn from ChEMBL document CHEMBL2390866 for this set.

Target: 5-hydroxytryptamine receptor 2C (Homo sapiens, UniProt P28335)
Sequence (P28335 whole entry): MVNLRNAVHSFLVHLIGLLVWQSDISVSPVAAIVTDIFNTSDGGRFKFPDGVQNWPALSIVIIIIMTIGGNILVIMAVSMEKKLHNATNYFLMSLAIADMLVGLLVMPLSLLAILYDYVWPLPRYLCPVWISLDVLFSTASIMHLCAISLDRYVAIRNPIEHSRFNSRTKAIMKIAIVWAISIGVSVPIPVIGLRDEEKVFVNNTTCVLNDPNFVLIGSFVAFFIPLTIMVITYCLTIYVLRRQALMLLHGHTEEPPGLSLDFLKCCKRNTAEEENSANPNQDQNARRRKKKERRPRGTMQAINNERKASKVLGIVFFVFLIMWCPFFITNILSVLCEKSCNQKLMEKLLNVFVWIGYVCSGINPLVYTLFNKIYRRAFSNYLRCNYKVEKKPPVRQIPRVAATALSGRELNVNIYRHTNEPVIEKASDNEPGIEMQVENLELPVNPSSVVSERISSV
Assay: Displacement of [3H]-mesulergine from human recombinant 5HT-2C receptor expressed in CHOK1 cell membranes after 30 mins
Parameters: species or system CHO-K1
I'd be grateful if you could share measured pIC50 for these entries.
Answers are plain numbers, as −log10 of the molar value.

Would you please look over these solved cases?
CN1CCN(c2nc(Nc3ccccc3)c3cn[nH]c3n2)CC1
7.06
COc1cccc(Nc2nc(N3CCN(C)CC3)nc3c2CCNCC3)c1
5.54
Fc1ccc(Nc2nc(Cc3ccccc3)nc3c2CCNCC3)cc1
8.07

Hi there! I need pIC50 for each item below, if you can.
1. Cc1ccc(CNc2nc(Nc3ccc(F)cc3)c3cn[nH]c3n2)cc1
2. CN1CCN(c2nc(Nc3ccc(F)cc3)c3cn[nH]c3n2)CC1
3. Fc1cccc(Nc2nc(Cc3ccccc3)nc3c2CCNCC3)c1
4. CN(C)c1nc(Nc2ccc(F)cc2)c2cn[nH]c2n1

**A:**
5.23
7.07
7.88
5.40

---

experiment: Tmax in Sprague-Dawley rat at 10 mg/kg, po; format: ADME, organism-based; design: dose 10 mg/kg, route oral; settings: in vivo
reported_metric: Tmax
I'd appreciate it if you included the unit after the number.

**Q:** For the molecule `Cl.Clc1cccc(Nc2nc(Cc3ccccc3)nc3c2CCNCC3)c1` , report Tmax.
**A:** 3.5 h

---

molecular target: 5-hydroxytryptamine receptor 2C (Homo sapiens); test: Displacement of [3H]-mesulergine from human recombinant 5HT-2C receptor expressed in CHOK1 cell membranes at 10 uM after 30 mins relative to control; conditions: CHO-K1
# label = 1 if inhibition >= 40% else -1

CN1CCN(c2nc(Nc3ccccc3)c3cn[nH]c3n2)CC1
1
OCCCNc1nc(Nc2ccc(F)cc2)c2cn[nH]c2n1
-1
Fc1ccc(Nc2nc(NCCN3CCOCC3)nc3[nH]ncc23)cc1
-1
CCNc1nc(Nc2ccc(F)cc2)c2cn[nH]c2n1
-1
CCNc1nc(Nc2ccccc2)c2cn[nH]c2n1
-1

In the following, a different compound is considered.
**Q:** Please indicate if the recorded inhibition for CC1CC(C)CN(c2nc(Nc3ccc(F)cc3)c3cn[nH]c3n2)C1 (stereo unspecified) meets or exceeds 40%.
**A:** 1

---

target: 5-hydroxytryptamine receptor 2A (Homo sapiens); test: Displacement of [3H]-ketanserin from human recombinant 5HT-2A receptor expressed in CHOK1 cell membranes after 60 mins; set-up: species or system CHO-K1
Sequence (P28223 whole entry): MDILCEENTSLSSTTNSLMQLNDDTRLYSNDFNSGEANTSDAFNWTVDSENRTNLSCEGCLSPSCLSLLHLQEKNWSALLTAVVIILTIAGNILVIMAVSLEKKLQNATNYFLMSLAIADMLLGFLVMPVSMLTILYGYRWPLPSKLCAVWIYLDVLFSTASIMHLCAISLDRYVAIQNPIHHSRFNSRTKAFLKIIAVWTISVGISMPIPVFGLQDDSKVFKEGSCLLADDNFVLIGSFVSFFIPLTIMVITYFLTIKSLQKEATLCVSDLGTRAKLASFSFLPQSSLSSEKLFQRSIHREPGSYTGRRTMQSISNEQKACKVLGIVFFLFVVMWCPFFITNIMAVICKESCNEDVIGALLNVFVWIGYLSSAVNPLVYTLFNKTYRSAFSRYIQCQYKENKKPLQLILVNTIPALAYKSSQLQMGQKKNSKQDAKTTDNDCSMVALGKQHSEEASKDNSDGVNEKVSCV
reported_metric: pIC50
Give bare numbers, as −log10 of the molar value.

Would you please look over these solved cases?
CCN(CC)c1nc(Nc2ccc(C)c(C)c2)c2cn[nH]c2n1
5.56
c1ccc(Cc2nc3c(c(N4CCSCC4)n2)CCNCC3)cc1
5.90
CN1CCN(c2nc3c(c(Nc4ccc(F)cc4)n2)CCNCC3)CC1
6.67

Hi there! I need pIC50 for each item below, if you can.
1. COc1ccc(Nc2nc(Cc3ccccc3)nc3c2CCNCC3)cc1
2. COc1cccc(Nc2nc(N3CCN(C)CC3)nc3[nH]ncc23)c1
3. CCN(CC)c1nc(Nc2ccc(F)cc2)c2cn[nH]c2n1
4. CN1CCN(c2nc(Nc3ccc(F)cc3)c3cn[nH]c3n2)CC1

**A:**
1. 7.24
2. 8.04
3. 5.34
4. 7.62

Hi there! I need pIC50 for each item below, if you can.
1. Fc1ccc(Nc2nc(NC3CCCCC3)nc3[nH]ncc23)cc1
2. Fc1ccc(Nc2nc(NC3CCCC3)nc3[nH]ncc23)cc1

**A:**
[5.44, 5.35]

Hi there! I need pIC50 for each item below, if you can.
1. CCN(CC)c1nc(Nc2ccccc2C)c2cn[nH]c2n1
2. CCN(CC)c1nc(Nc2cccc(OC)c2)c2cn[nH]c2n1
3. Fc1ccc(Nc2nc(Cc3ccccc3)nc3c2CCNCC3)cc1
4. COc1ccccc1N1CCN(c2nc(Nc3ccc(F)cc3)c3cn[nH]c3n2)CC1
5. Fc1ccc(Nc2nc(NCCN3CCOCC3)nc3[nH]ncc23)cc1
6. COc1cccc(Nc2nc(Cc3ccccc3)nc3c2CCNCC3)c1

**A:**
5.34
5.68
8.71
5.86
5.01
7.07

Hi there! I need pIC50 for each item below, if you can.
1. C=CCNc1nc(Nc2ccc(F)cc2)c2cn[nH]c2n1
2. CN1CCc2nc(N3CCN(C)CC3)nc(Nc3ccc(F)cc3)c2CC1

**A:**
5.18
6.16
